Tested on: MDA-MB-468
experimentSummary: normalised viability (% of control), CellTiter-Blue; higher = more viable cells (about 100 = DMSO control)
conditionParameters: 10 nM; incubation time: 72 h
endpointLabel: normalised viability (%)
Answer with a number only, understood to be in %.

C#Cc1cccc(Nc2ncnc3cc(OC)c(OCCCCCCC(=O)NO)cc23)c1 [CUDC-101] = 100
O=c1[nH]cc(F)c(=O)[nH]1 [Fluorouracil] = 99.4
COc1c(C)cnc(Cn2cnc3c(Cl)nc(N)nc32)c1C [BIIB021] = 93.5
COC1=CC(c2cc3ccccc3[nH]2)=N/C1=C\c1[nH]c(C)cc1C [Obatoclax] = 85

Now look at this one.
Entry O=C(c1ccc(OCCN2CCCCC2)cc1)c1c(-c2ccc(O)cc2)sc2cc(O)ccc12 [Raloxifene] — recorded normalised viability = 98.6
